System: Zika virus NS2B-NS3 protease (unlinked)
Test: Optimization of GU AMC qHTS for Zika virus inhibitors: Unlinked NS2B-NS3 protease assay (AID 1347151); note: nearly all actives have a fitted effect of over 80% in size; note: potency is the fitted concentration of half-maximal effect
Settings: recombinant ZIKV NS2B-NS3 protease, fluorogenic AMC substrate; series mostly up to 52.5 µM
Inconclusive results are not listed. Activity calls are given as the source filed them. Calls come from the whole dose curve; as a rule, active = well fitted inhibition curve with a large enough effect; inconclusive = small, poorly fitted or top-dose-only effect; inactive = no such curve, though single readings can be large or run the other way.
measurement.name: Potency

In the examples that follow, each entry is paired with its recorded Potency.
Lookup: Checklist item: Potency tested on Zika virus NS2B-NS3 protease (unlinked), entry CCCn1c(=O)c2[nH]c(C3CCCC3)nc2n(CCC)c1=O , value?
Found: inactive

Lookup: State its Potency on Zika virus NS2B-NS3 protease (unlinked): CCCCCCN(CCCCCC)C(=O)Cc1c(-c2ccc(F)cc2)[nH]c2ccccc12
Found: 21.2 µM (active)

Lookup: Short answer please: Potency, Zika virus NS2B-NS3 protease (unlinked), entry OC1(c2ccc(Cl)cc2)CCN(Cc2c[nH]c3ccccc23)CC1
Found: inactive

Lookup: Zika virus NS2B-NS3 protease (unlinked) / Potency / COc1cc(CC(=O)O)ccc1O : value?
Found: inactive

Lookup: // map Nc1ccc(CCNc2ncnc3c2ncn3C2OC(CO)C(O)C2O)cc1 (stereo not given) to recorded Potency (system: Zika virus NS2B-NS3 protease (unlinked))
Found: inactive

Others:
Lookup: Notebook entry, Zika virus NS2B-NS3 protease (unlinked) assay: Potency of NCCCCN=C(N)N = ?
Found: inactive

Lookup: Form: Entry = O=c1onc2cnc3ccccc3n12 | System = Zika virus NS2B-NS3 protease (unlinked) | Potency = ____
Found: 26.7 µM (active)

Lookup: Request body: readout Potency, system Zika virus NS2B-NS3 protease (unlinked), query CC(=O)O[C@H]1Cc2ccccc2N(C(N)=O)c2ccccc21 . Return the value.
Found: inactive

Lookup: Observed Potency on Zika virus NS2B-NS3 protease (unlinked) for COc1ccc(-c2ccc(N)[n+](CCCC(=O)O)n2)cc1 , please.
Found: inactive

Lookup: For the record CSc1nc(N)c2ncn([C@@H]3O[C@H](COP(=O)(O)OP(=O)(O)O)C(O)[C@H]3O)c2n1 (stereo not given in full) , what value of Potency is listed for Zika virus NS2B-NS3 protease (unlinked)?
Found: inactive

Lookup: What measured Potency is associated with CC(C)(C)c1cc(/C=C(\C#N)C(N)=S)cc(C(C)(C)C)c1O on Zika virus NS2B-NS3 protease (unlinked)?
Found: 21.2 µM (active)

Lookup: Enter reported Potency observed with Zika virus NS2B-NS3 protease (unlinked) for Nc1nc2c(cnn2CCc2ccccc2)c2nc(-c3ccco3)nn12
Found: 23.8 µM (active)

Reference for the values: PubChem BioAssay (NCATS)
